These entries and their values trace back to ChEMBL document CHEMBL3244381.

target: UniProt:P09242; assay: Inhibition of alkaline phosphatase in mouse Sarcoma 180/TG cells; conditions: read-out: I50
Sequence (P09242 whole entry): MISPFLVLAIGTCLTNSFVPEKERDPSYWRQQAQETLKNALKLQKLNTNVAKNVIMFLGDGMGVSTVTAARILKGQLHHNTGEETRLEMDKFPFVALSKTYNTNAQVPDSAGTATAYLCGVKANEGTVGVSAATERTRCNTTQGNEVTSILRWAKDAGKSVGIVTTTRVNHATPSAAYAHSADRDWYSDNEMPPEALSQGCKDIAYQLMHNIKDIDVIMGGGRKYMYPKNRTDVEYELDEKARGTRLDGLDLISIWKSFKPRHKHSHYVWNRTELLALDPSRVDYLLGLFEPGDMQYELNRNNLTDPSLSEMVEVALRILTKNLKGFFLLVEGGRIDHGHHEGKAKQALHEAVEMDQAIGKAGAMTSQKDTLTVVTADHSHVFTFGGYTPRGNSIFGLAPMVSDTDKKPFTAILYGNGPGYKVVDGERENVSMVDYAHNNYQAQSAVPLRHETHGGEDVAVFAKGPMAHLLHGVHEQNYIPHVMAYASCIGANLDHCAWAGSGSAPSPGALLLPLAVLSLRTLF
IC50 vs 20 µM: less than gives YES; not less than gives NO.

INSERT INTO assay_data (molecule, assigned_label) VALUES
  ('C1=CN2CC(c3ccc4ccccc4c3)N=C2S1 (racemic)', 'YES'),
  ('Brc1ccc(C2CN3CCSC3=N2)cc1 (racemic)', 'YES'),
  ('Cc1cccc(C2CN3CCSC3=N2)c1 (racemic)', 'NO'),
  ('Brc1ccc(C2CN3C=CSC3=N2)cc1 (racemic)', 'YES'),
  ('Cc1ccc(C2CN3C=CSC3=N2)cc1C (racemic)', 'YES'),
  ('O=[N+]([O-])c1cccc(C2CN3CCSC3=N2)c1 (racemic)', 'NO'),
  ('c1ccc2cc(C3CN4CCSC4=N3)ccc2c1 (racemic)', 'YES'),
  ('Clc1ccc(C2CN3CCSC3=N2)cc1 (racemic)', 'YES'),
  ('Cc1ccc(C2CN3C=CSC3=N2)cc1 (racemic)', 'YES'),
  ('Fc1ccc(C2CN3CCSC3=N2)cc1 (racemic)', 'YES'),
  ('Cc1ccc(C2CN3CCSC3=N2)cc1 (racemic)', 'YES'),
  ('C1=CN2CC(c3cccs3)N=C2S1 (racemic)', 'NO'),
  ('c1ccc(C2CN3CCSC3=N2)cc1 (racemic)', 'NO'),
  ('Brc1ccc([C@H]2CN3CCSC3=N2)cc1.O=C(O)C(=O)O', 'YES'),
  ('C1=CN2CC(c3ccccc3)N=C2S1 (racemic)', 'NO'),
  ('O=[N+]([O-])c1ccc(C2CN3C=CSC3=N2)cc1 (racemic)', 'YES'),
  ('Brc1cccc(C2CN3C=CSC3=N2)c1 (racemic)', 'YES');
